// data source = ChEMBL document CHEMBL1149709

biological target: Metabotropic glutamate receptor 5 (Rattus norvegicus, UniProt P31424); assay: Antagonistic activity at rat mGluR5 expressed in CHO cells assessed as inhibition of quisqualate stimulated calcium mobilization by FLIPR technology
Sequence (P31424 whole entry): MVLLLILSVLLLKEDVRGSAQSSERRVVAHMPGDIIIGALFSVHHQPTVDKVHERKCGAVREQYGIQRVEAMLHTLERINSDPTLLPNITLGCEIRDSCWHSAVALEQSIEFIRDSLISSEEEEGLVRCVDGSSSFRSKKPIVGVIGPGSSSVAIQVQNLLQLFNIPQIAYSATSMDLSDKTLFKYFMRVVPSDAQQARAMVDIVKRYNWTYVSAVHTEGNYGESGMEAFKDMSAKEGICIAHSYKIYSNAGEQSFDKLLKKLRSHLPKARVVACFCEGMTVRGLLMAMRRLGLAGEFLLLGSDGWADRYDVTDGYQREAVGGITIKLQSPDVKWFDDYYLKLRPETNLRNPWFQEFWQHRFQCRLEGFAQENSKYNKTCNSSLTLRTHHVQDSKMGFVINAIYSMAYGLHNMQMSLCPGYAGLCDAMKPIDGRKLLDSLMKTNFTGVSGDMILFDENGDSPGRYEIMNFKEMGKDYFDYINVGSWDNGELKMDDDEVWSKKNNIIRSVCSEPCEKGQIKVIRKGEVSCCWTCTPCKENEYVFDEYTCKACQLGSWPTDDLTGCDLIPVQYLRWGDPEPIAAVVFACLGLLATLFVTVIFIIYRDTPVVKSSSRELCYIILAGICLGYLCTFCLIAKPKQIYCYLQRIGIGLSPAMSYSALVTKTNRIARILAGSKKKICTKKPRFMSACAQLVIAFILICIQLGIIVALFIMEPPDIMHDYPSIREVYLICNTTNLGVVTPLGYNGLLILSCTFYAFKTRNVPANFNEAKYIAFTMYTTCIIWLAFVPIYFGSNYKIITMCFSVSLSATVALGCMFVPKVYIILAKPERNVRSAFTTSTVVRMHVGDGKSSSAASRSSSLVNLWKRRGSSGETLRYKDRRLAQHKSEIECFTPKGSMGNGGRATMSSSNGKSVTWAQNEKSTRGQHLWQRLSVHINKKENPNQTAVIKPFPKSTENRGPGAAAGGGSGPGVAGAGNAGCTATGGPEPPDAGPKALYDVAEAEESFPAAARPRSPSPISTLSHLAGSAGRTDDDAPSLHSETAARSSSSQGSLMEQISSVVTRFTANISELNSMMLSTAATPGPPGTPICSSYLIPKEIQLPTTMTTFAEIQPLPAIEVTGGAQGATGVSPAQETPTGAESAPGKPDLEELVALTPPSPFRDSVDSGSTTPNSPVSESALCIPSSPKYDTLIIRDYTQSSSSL
pIC50: −log10 of the molar value.
measured.property: pIC50

Need pIC50 of Cc1ccc2cnc(-c3cccc(Br)c3)nc2n1 , thanks.
7.42

Need pIC50 of Brc1cccc(-c2ncc3cccnc3n2)c1 , thanks.
6.48

(1) Cc1ccc2cnc(-c3cc(Cl)cc(Cl)c3)nc2n1
(2) Cc1cccc(-c2ncc3ccc(C)nc3n2)c1
(3) Cc1ccc2cnc(-c3ccccc3)nc2n1
Highest pIC50 first, then in falling order down to the smallest. # format: label list in the order the request specifies
1, 2, 3
(1: 9.14, 2: 7.28, 3: 5.57)

* * *

target: Metabotropic glutamate receptor 5 (Rattus norvegicus, UniProt P31424); experiment: Antagonistic activity at rat mGluR5 expressed in CHO cells assessed as inhibition of quisqualate stimulated calcium mobilization by FLIPR technology
pIC50: −log10 of the molar value.
measured.property: pIC50

Solved cases (2 shown):
Need pIC50 of COc1cccc(-c2ncc3ccc(C)nc3n2)c1 , thanks.
5.82

Need pIC50 of COc1cc(OC)cc(-c2ncc3ccc(C)nc3n2)c1 , thanks.
6.75

(A) Cc1cc(F)cc(-c2ncc3cccnc3n2)c1
(B) COc1cc(C#N)cc(-c2ncc3cccnc3n2)c1
In terms of reported pIC50, does A or B have the smaller number? Record your answer as the label of the chosen record.
A

(P) Cc1ccc2cnc(-c3cccc(C#N)c3)nc2n1
(Q) Cc1cc(F)cc(-c2ncc3ccc(C)nc3n2)c1
In terms of reported pIC50, does P or Q have the smaller number? Record your answer as the label of the chosen record.
P
(P: 6.62, Q: 7.40)

(P) COc1cc(C#N)cc(-c2ncc3ccc(C)nc3n2)c1
(Q) Clc1cc(Cl)cc(-c2ncc3cccnc3n2)c1
Task for the reader: decide whether P or Q has the larger pIC50. Record your answer as the label of the chosen record.
P
